Taken from a collection of fitness landscapes (doi:10.1126/science.1257360).

B1: PhoQ; a variant is named by its letters at X, in order, P23837 (parent)
chain: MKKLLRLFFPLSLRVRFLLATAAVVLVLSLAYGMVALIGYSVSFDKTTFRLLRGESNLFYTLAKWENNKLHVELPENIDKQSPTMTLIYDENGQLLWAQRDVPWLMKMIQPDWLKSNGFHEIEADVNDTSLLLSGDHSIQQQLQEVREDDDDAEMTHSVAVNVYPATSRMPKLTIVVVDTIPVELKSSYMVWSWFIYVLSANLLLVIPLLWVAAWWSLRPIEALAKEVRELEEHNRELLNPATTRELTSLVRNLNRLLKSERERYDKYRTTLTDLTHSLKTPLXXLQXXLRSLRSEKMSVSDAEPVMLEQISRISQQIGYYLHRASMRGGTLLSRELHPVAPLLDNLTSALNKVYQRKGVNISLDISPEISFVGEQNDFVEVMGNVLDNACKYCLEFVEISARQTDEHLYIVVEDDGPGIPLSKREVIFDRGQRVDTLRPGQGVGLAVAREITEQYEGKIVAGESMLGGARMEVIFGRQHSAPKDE

- Variants of: B1
- Assay Text: enrichment ratio after two sorts for PhoP signalling (ratio (wild type AVST 3.29)); higher = more functional
- Details: with PhoP (E. coli)
The full ranking holds about 140,000 sequences; the median of “enrichment ratio after two sorts for PhoP signalling” is about 0, and the highest 2% start at about 11. The full list was thinned out, with the highest values kept by preference.
Quantity Measured: enrichment ratio

Value of enrichment ratio reported for the variant QHTT is ≤ 0.25

Value of enrichment ratio reported for the variant KCLC is ≤ 0.25

Value of enrichment ratio reported for the variant LMRD is ≤ 0.25

Value of enrichment ratio reported for the variant TEWT is 12.8

Value of enrichment ratio reported for the variant EKQI is ≤ 0.25

Value of enrichment ratio reported for the variant ADWT is ≤ 0.25

Value of enrichment ratio reported for the variant NGNG is ≤ 0.25

Value of enrichment ratio reported for the variant YYAI is ≤ 0.25

Value of enrichment ratio reported for the variant MNGF is 3.05

Value of enrichment ratio reported for the variant WISL is ≤ 0.25

Value of enrichment ratio reported for the variant NMSM is ≤ 0.25

Value of enrichment ratio reported for the variant MIGF is 11.9

Value of enrichment ratio reported for the variant LRWT is ≤ 0.25

Value of enrichment ratio reported for the variant TVFL is ≤ 0.25

Value of enrichment ratio reported for the variant TLGF is 12.8

Value of enrichment ratio reported for the variant TDWT is 25.1

Value of enrichment ratio reported for the variant WNTR is ≤ 0.25

Value of enrichment ratio reported for the variant TNHF is ≤ 0.25

Value of enrichment ratio reported for the variant NEIS is ≤ 0.25

Value of enrichment ratio reported for the variant QNFD is ≤ 0.25

Value of enrichment ratio reported for the variant NISL is 0.771

Value of enrichment ratio reported for the variant SEWT is 13.2

Value of enrichment ratio reported for the variant NQNG is ≤ 0.25

Value of enrichment ratio reported for the variant LLWT is ≤ 0.25

Value of enrichment ratio reported for the variant DQCP is ≤ 0.25

Value of enrichment ratio reported for the variant ADGC is ≤ 0.25

Value of enrichment ratio reported for the variant SLWT is ≤ 0.25

Value of enrichment ratio reported for the variant SLSL is 10.7

Value of enrichment ratio reported for the variant AICF is 13.5

Value of enrichment ratio reported for the variant MMCF is ≤ 0.25

Value of enrichment ratio reported for the variant GLSL is 11.5

Value of enrichment ratio reported for the variant ALCF is 13.2

Value of enrichment ratio reported for the variant TEIV is ≤ 0.25

Value of enrichment ratio reported for the variant GFWW is 1.03

Value of enrichment ratio reported for the variant TISL is 19.4

Value of enrichment ratio reported for the variant RMAR is ≤ 0.25

Value of enrichment ratio reported for the variant KVWY is ≤ 0.25

Value of enrichment ratio reported for the variant SYVF is 0.277

Value of enrichment ratio reported for the variant GMFY is ≤ 0.25

Value of enrichment ratio reported for the variant RFYE is ≤ 0.25

Value of enrichment ratio reported for the variant YMPP is ≤ 0.25

Value of enrichment ratio reported for the variant ALHS is ≤ 0.25

Value of enrichment ratio reported for the variant KYMQ is ≤ 0.25

Value of enrichment ratio reported for the variant NICF is ≤ 0.25

Value of enrichment ratio reported for the variant HPWT is ≤ 0.25

Value of enrichment ratio reported for the variant MIFC is ≤ 0.25
